Biological target: human melanocortin-4 receptor (MC-4R) (Homo sapiens)
Construct: expressed in transfected cells; host or cells: HEK293
Experiment: Functional assay: agonistic activity, cAMP production in membrane preparations compared with NDP-alpha-MSH, fluorescence polarization
Type: biochemical
Settings: cAMP produced compared to stimulation with NDP-alpha-MSH; read-out: % activation functional assay
Can you tell me Emax for the items I'm about to list?

[ask] For CC[C@@H](CN1CCCC1)Oc1ncccc1C1CCN(C(=O)[C@@H](Cc2ccc(Cl)cc2Cl)NC(=O)N2CCCC2)CC1 , what is its reported Emax?
[reply] 0%

[ask] For CC[C@H](COc1cccnc1C1CCN(C(=O)[C@@H](Cc2ccc(Cl)cc2Cl)NC(=O)N2CCC[C@H](O)C2)CC1)N(C)C , what is its reported Emax?
[reply] -3%

[ask] For O=C(N[C@H](Cc1ccc(Cl)cc1Cl)C(=O)N1CCC(c2ncccc2OCCN2CCCC2)CC1)N1CCCC1 , what is its reported Emax?
[reply] 0%

[ask] For COCCN(C)C(=O)N[C@H](Cc1ccc(Cl)cc1Cl)C(=O)N1CCC(c2ncccc2O[C@H]2CCCN(C)C2)CC1 , what is its reported Emax?
[reply] -32%

* * *

Target: human melanocortin-4 receptor (MC-4R) (Homo sapiens)
Construct: expressed in transfected cells; host or cells: HEK293
Test: Functional assay: agonistic activity, cAMP production in membrane preparations compared with NDP-alpha-MSH, fluorescence polarization
Assay type: biochemical
Settings: cAMP produced compared to stimulation with NDP-alpha-MSH; read-out: % activation functional assay
measured_endpoint: Emax (%)
// note: answer is a bare numeric in %

[ask] For CC[C@H](COc1cc(Cl)cnc1C1CCN(C(=O)[C@@H](Cc2ccc(C)cc2C)NC(=O)N2CCCC2)CC1)N1CCCC1 , what is its reported Emax?
[reply] -4

[ask] For CC[C@H](COc1cc(F)cnc1C1CCN(C(=O)[C@@H](Cc2ccc(Cl)cc2Cl)NC(=O)N2CC(O)C2)CC1)N(C)C , what is its reported Emax?
[reply] -1

[ask] For CC[C@H](COc1cccnc1C1CCN(C(=O)[C@@H](Cc2ccc(Cl)cc2Cl)NC(=O)N(C)C)CC1)N1CCCC1 , what is its reported Emax?
[reply] 0

[ask] For Cc1ccc(C2CCN(C(=O)[C@@H](Cc3ccc(Cl)cc3Cl)NC(=O)N3CCCC3)CC2)c(OCCN2CCCC2)n1 , what is its reported Emax?
[reply] 0

[ask] For Cc1cnc(N(C)CCN2CCCC2)c(C2CCN(C(=O)[C@@H](Cc3ccc(Cl)cc3Cl)NC(=O)N3CCCC3)CC2)c1 , what is its reported Emax?
[reply] 0

[ask] For CN1CCN(c2cccnc2C2CCN(C(=O)[C@@H](Cc3ccc(Cl)cc3Cl)NC(=O)N3CCCC3)CC2)CC1 , what is its reported Emax?
[reply] 0

[ask] For CC[C@H](COc1cccnc1C1CCN(C(=O)[C@@H](Cc2ccc(Cl)cc2Cl)NC(=O)N2CC[C@@H](O)C2)CC1)N(C)C , what is its reported Emax?
[reply] -1

[ask] For CC[C@H](COc1cccnc1C1CCN(C(=O)[C@@H](Cc2ccc(Cl)cc2Cl)NC(=O)N(CC)CC)CC1)N1CCCC1 , what is its reported Emax?
[reply] 0

[ask] For CC[C@H](COc1cccnc1C1CCN(C(=O)[C@@H](Cc2ccc(Cl)cc2Cl)NC(=O)N2CC[C@H](CO)C2)CC1)N(C)C , what is its reported Emax?
[reply] -3

[ask] For C[C@H](COc1cccnc1C1CCN(C(=O)[C@@H](Cc2ccc(Cl)cc2Cl)NC(=O)N2CCCC2)CC1)N(C)C , what is its reported Emax?
[reply] 0

[ask] For CN1CC[C@H](COc2cccnc2C2CCN(C(=O)[C@@H](Cc3ccc(Cl)cc3Cl)NC(=O)N3CCCC3)CC2)C1 , what is its reported Emax?
[reply] 0

[ask] For CN1CC[C@H](Oc2cccnc2C2CCN(C(=O)[C@@H](Cc3ccc(Cl)cc3Cl)NC(=O)N3CCCC3)CC2)C1 , what is its reported Emax?
[reply] -1

[ask] For CN1CCO[C@H](COc2cccnc2C2CCN(C(=O)[C@@H](Cc3ccc(Cl)cc3Cl)NC(=O)N3CCCC3)CC2)C1 , what is its reported Emax?
[reply] -3

[ask] For CC[C@H](COc1cccnc1C1CCN(C(=O)[C@@H](Cc2ccc(Cl)cc2Cl)NC(=O)N2CCC[C@H]2CO)CC1)N(C)C , what is its reported Emax?
[reply] -1

[ask] For CC[C@H](COc1cccnc1C1CCN(C(=O)[C@@H](Cc2ccc(Cl)cc2Cl)NC(=O)N2CCCC2)CC1)N(C)C , what is its reported Emax?
[reply] 0

[ask] For Cc1ccc(C2CCN(C(=O)[C@@H](Cc3ccc(Cl)cc3Cl)NC(=O)N3CCCC3)CC2)c(NCCN2CCCC2)n1 , what is its reported Emax?
[reply] 0

[ask] For CC[C@@H](CN(C)C)Oc1cccnc1C1CCN(C(=O)[C@@H](Cc2ccc(Cl)cc2Cl)NC(=O)N(C)CCOC)CC1 , what is its reported Emax?
[reply] 9

[ask] For CC[C@H](COc1cccnc1C1CCN(C(=O)[C@@H](Cc2ccc(Cl)cc2Cl)NC(=O)N(C)CCOC)CC1)N1CCCC1 , what is its reported Emax?
[reply] 0

[ask] For CC[C@H](COc1cccnc1C1CCN(C(=O)[C@@H](Cc2ccc(Cl)cc2Cl)NC(=O)N(C)CC)CC1)N1CCCC1 , what is its reported Emax?
[reply] 0

[ask] For CN1CCC[C@@H]1COc1cccnc1C1CCN(C(=O)[C@@H](Cc2ccc(Cl)cc2Cl)NC(=O)N2CCCC2)CC1 , what is its reported Emax?
[reply] -27

* * *

Can you tell me Emax for the items I'm about to list?
Target: human melanocortin-4 receptor (MC-4R) (Homo sapiens, UniProt P32245)
Construct: expressed in transfected cells; host or cells: HEK293
Sequence (P32245 whole entry): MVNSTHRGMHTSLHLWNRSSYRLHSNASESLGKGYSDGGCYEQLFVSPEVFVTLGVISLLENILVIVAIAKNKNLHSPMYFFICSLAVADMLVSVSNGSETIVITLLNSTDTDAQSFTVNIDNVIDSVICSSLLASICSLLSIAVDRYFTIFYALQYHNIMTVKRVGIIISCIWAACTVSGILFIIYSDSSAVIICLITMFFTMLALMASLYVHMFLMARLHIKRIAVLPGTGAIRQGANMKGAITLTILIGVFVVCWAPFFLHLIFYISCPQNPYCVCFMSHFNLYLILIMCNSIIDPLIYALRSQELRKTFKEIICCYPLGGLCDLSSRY
Assay: Functional assay: agonistic activity, cAMP production in membrane preparations compared with NDP-alpha-MSH, fluorescence polarization
Format: biochemical
Details: cAMP produced compared to stimulation with NDP-alpha-MSH; read-out: % activation functional assay
// note: answer is a bare numeric in %

[ask] Find Emax (human melanocortin-4 receptor (MC-4R) (Homo sapiens, UniProt P32245)) for the entry CN1CCOC[C@H](Oc2cccnc2C2CCN(C(=O)[C@@H](Cc3ccc(Cl)cc3Cl)NC(=O)N3CCCC3)CC2)C1 [Example 48]
[reply] 0

[ask] Find Emax (human melanocortin-4 receptor (MC-4R) (Homo sapiens, UniProt P32245)) for the entry CC[C@@H](COc1cccnc1C1CCN(C(=O)[C@@H](Cc2ccc(Cl)cc2Cl)NC(=O)N2CCCC2)CC1)N(C)C [Example 33]
[reply] 0

[ask] Find Emax (human melanocortin-4 receptor (MC-4R) (Homo sapiens, UniProt P32245)) for the entry O=C(N[C@H](Cc1ccc(Cl)cc1Cl)C(=O)N1CCC(c2ncccc2O[C@H]2CN3CCC2CC3)CC1)N1CCCC1 [Example 26]
[reply] 0

* * *

Target: human melanocortin-4 receptor (MC-4R) (Homo sapiens)
pIC50: −log10 of the molar value.
Can you tell me pIC50 for the items I'm about to list?

[ask] For CC[C@H](COc1cccnc1C1CCN(C(=O)[C@@H](Cc2ccc(Cl)cc2Cl)NC(=O)N2CCC(C)(O)C2)CC1)N(C)C (stereo partly drawn) , what is its reported pIC50?
[reply] ≥ 7.00

[ask] For CC[C@H](COc1cc(F)cnc1C1CCN(C(=O)[C@@H](Cc2ccc(Cl)cc2Cl)NC(=O)N2CC(O)C2)CC1)N(C)C , what is its reported pIC50?
[reply] ≥ 7.00

[ask] For CC[C@H](COc1cccnc1C1CCN(C(=O)[C@@H](Cc2ccc(Cl)cc2Cl)NC(=O)N2CC[C@@H](N)C2)CC1)N(C)C , what is its reported pIC50?
[reply] ≥ 7.00

[ask] For CC[C@H](CN(C)C)Oc1cccnc1C1CCN(C(=O)[C@@H](Cc2ccc(Cl)cc2Cl)NC(=O)N2CCCC2)CC1 , what is its reported pIC50?
[reply] < 6.00

[ask] For CN1CC[C@@H](COc2cccnc2C2CCN(C(=O)[C@@H](Cc3ccc(Cl)cc3Cl)NC(=O)N3CCCC3)CC2)C1 , what is its reported pIC50?
[reply] 6.00 to 7.00

[ask] For COC[C@@H](CN(C)C)Oc1cccnc1C1CCN(C(=O)[C@@H](Cc2ccc(Cl)cc2Cl)NC(=O)N2CCCC2)CC1 , what is its reported pIC50?
[reply] ≥ 7.00

Reference source for all entries: patent US20100249093A1
